molecular target: T1, recombinant dog Aggrecan G1-IGD-G2 (dog, UniProt Q28343 20-693, limits assumed); test: periplasmic extract ELISA
T1 construct: also called Dog G1-IGD-G2
measured attribute: OD 450 nm (OD 450 nm)

INSERT INTO measurements (binder, obs_value) VALUES
  ('C0101PMP117G09 (VHH, Tested as E. coli periplasmic extract; not shown: FLAG3 and His6 tags (phagemid pAX212)) VHH: EVQLVESGGGSALPGGSLRLSCAASGITFSSRYMRWYRQAPGRQRELVAAISSGGRTDYVDSVRGRFTLSINNAKNTVYLQMNDLKPEDTAVYYCYRPRMYVDGTYEKELWGQGTLVTVSS', 1.68),
  ('C0101PMP112A01 (VHH, Tested as E. coli periplasmic extract; not shown: FLAG3 and His6 tags (phagemid pAX212)) VHH: EVQLVESGGGLVQTGGSLRLSCVASGRAFSNYIMGWFRQAPGKERDFVAAINWNGVTTHYTDSVKGRFTISRDNAKSTSYLQMDSLKPDDTAVYFCAARGTVYSRTYGVSEEGYMYWGQGTQVTVSS', 1.57),
  ('C0101PMP114F08 (VHH, Tested as E. coli periplasmic extract; not shown: FLAG3 and His6 tags (phagemid pAX212)) VHH: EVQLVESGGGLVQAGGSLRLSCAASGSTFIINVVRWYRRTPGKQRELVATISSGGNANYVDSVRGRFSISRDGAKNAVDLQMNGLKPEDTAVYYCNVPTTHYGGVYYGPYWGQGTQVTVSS', 1.9),
  ('C0101PMP604B05 (VHH, Tested as E. coli periplasmic extract; not shown: FLAG3 and His6 tags (phagemid pAX212)) VHH: DVQLVESGGGLVQPGGSLRLSCVASGRTFSIYTMAWFRQAPGKEREFVAAISWSSGRTYYADSVKGRFTISRDNSKNTVYLQMNSLRPEDTAVYYCTAYTGPRSGYDYWGQGTLVTVSS', 1.27),
  ('C0101PMP606A07 (VHH, Tested as E. coli periplasmic extract; not shown: FLAG3 and His6 tags (phagemid pAX212)) VHH: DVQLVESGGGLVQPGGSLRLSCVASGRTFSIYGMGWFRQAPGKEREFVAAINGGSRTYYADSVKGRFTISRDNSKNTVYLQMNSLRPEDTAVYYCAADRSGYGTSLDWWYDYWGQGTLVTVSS', 1.47);
